// data source = paper PMC6438990

# Experimental target: SLC26A3 (DRA, down-regulated in adenoma) (Homo sapiens, UniProt P40879)
# Sequence (P40879 whole entry): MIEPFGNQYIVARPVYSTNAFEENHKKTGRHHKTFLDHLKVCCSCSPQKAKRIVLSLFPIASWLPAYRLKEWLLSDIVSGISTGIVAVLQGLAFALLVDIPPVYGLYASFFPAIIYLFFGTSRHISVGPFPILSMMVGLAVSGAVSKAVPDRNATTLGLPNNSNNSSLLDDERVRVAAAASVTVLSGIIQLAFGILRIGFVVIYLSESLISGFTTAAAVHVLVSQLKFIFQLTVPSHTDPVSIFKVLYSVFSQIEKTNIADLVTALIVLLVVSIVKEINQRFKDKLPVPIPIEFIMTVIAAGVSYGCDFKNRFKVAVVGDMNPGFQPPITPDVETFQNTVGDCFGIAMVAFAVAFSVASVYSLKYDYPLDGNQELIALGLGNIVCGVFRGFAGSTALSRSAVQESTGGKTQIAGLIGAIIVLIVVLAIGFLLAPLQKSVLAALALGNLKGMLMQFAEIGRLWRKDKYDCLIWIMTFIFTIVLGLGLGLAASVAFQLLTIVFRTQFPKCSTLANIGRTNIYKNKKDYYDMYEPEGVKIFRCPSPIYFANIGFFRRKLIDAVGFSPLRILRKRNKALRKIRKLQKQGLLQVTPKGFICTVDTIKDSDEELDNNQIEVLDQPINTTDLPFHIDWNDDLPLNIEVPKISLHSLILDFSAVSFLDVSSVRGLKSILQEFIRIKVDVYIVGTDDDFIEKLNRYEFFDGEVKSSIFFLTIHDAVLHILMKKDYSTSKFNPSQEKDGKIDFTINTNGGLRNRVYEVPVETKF
Value type: pIC50
# pIC50 = -log10(concentration in molar units)

### Prompt For SLC26A3 (DRA, down-regulated in adenoma) (Homo sapiens, UniProt P40879), give pIC50 of the listed compound: Cc1c(CC(=O)O)c(=O)oc2c(C)c(OCc3cccc(Br)c3)ccc12
### Response 6.92
